# Tested on: HIV-1NL4-3 Wild Type
# assay.notes: Luminescence reduction assay, MT4 cells infected with HIV-1NL4-3 luciferase reporter virus, wild type
# Type: cell-based
# condition.description: Human immunodeficiency virus 1, MT4, MT4 cells, 2% FCS

{"columns": ["compound", "EC50 [µM]"],
 "data": [
  ["O=C(c1cc(-c2cc(Br)cc(OC(F)(F)F)c2)n(-c2ccnc(C(F)(F)F)c2)n1)N1CCS(=O)(=O)C1", 0.376],
  ["O=C(c1cc(-c2cc(Br)cc(OC(F)(F)F)c2)n(-c2ccnc(C(F)(F)F)c2)n1)N1CC[S+]([O-])C1 (stereo not drawn)", 0.249],
  ["O=C(c1cc(-c2cc(F)cc(Cl)c2)n(-c2ccnc(C(F)(F)F)c2)n1)N1CC[S+]([O-])C1 (stereo not drawn)", 0.152],
  ["O=C(c1cc(-c2cc(Br)cc(OC(F)(F)F)c2)n(-c2ccc(Cl)nc2)n1)N1CC[S+]([O-])C1 (racemic)", 0.004],
  ["O=C1CN(C(=O)c2cc(-c3cc(F)cc(Cl)c3)n(-c3cccnc3)n2)CCN1", 0.036],
  ["O=C1CN(C(=O)c2cc(-c3cc(F)cc(OC(F)(F)F)c3)n(-c3cccnc3)n2)CCN1", 0.204],
  ["O=C(c1cc(-c2cc(Br)cc(OC(F)(F)F)c2)n(-c2cccnc2)n1)N1CCSC1", 0.033],
  ["O=C1CN(C(=O)c2cc(-c3cnc(F)c(Cl)c3)n(-c3ccc(F)c(Cl)c3)n2)CN1", 0.03],
  ["O=C(c1cc(-c2cc(Cl)cc(OC(F)(F)F)c2)n(-c2ccc[n+](O)c2)n1)N1CCS(=O)(=O)C1", 0.164],
  ["Cc1cc(-n2nc(C(=O)N3CCNC(=O)C3)cc2-c2cc(F)cc(Cl)c2)ccn1", 0.375],
  ["O=C1CN(C(=O)c2cc(-c3cc(F)cc(Cl)c3)n(-c3ccncc3)n2)CN1", 0.323],
  ["O=C1CN(C(=O)c2cc(-c3ccnc(Cl)c3)n(-c3ccc(F)c(Cl)c3)n2)CCN1", 0.025],
  ["O=C1CN(C(=O)c2cc(-c3cc(Br)cc(OC(F)(F)F)c3)n(-c3ccnc(C(F)(F)F)c3)n2)CCN1", 0.648],
  ["O=C(c1cc(-c2cc(F)cc(OC(F)(F)F)c2)n(-c2cccnc2)n1)N1CCOCC1", 0.092],
  ["O=C(c1cc(-c2cc(F)cc(Cl)c2)n(-c2ccnc(C(F)(F)F)c2)n1)N1CCSC1", 0.284]
]}

###

# Tested on: HIV-1LAI Wild Type
# assay.notes: AlamarBlue viability assay, HIV-1LAI-infected MT4 cells
# Format: cell-based
# condition.description: Human immunodeficiency virus 1, MT4, MT4 cells, 10% FCS
Below, each entry is listed with its recorded log10(EC50).
recorded.endpoint: log10(EC50) (log10 of the value in µM)

{"columns": ["compound", "log10(EC50)"],
 "data": [
  ["COc1cc(Br)cc(-c2cc(C(=O)N3CNC(=O)C3)nn2-c2ccnc(Cl)c2)c1", -1.80],
  ["Cc1cc(-n2nc(C(=O)N3CNC(=O)C3)cc2-c2cc(Br)cc(OC(F)(F)F)c2)ccn1", -0.52],
  ["O=C1CN(C(=O)c2cc(-c3cc(F)cc(Cl)c3)n(-c3ccnc(C(F)(F)F)c3)n2)CN1", -0.31],
  ["O=C1CN(C(=O)c2cc(-c3cc(F)cc(Br)c3)n(-c3cccnc3)n2)CN1", -1.96],
  ["O=C1CN(C(=O)c2cc(-c3cc(F)cc(OC(F)F)c3)n(-c3ccnc(Cl)c3)n2)CN1", -0.49],
  ["O=C1CN(C(=O)c2cc(-c3cc(F)cc(Cl)c3)n(-c3cncc(Cl)c3)n2)CN1", -0.83],
  ["O=C(c1cc(-c2cc(F)cc(OC(F)(F)F)c2)n(-c2cccnc2)n1)N1CCSC1", 0.44],
  ["O=C1CN(C(=O)c2cc(-c3cc(Br)cc(OC(F)F)c3)n(-c3cccnc3)n2)CN1", -1.96],
  ["COc1cc(OC(F)(F)F)cc(-c2cc(C(=O)N3CCNC(=O)C3)nn2-c2ccnc(Cl)c2)c1", -0.21],
  ["O=C1CN(C(=O)c2cc(-c3cc(F)cc(Br)c3)n(-c3ccnc(Cl)c3)n2)CN1", -1.59],
  ["COc1cc(-n2nc(C(=O)N3CNC(=O)C3)cc2-c2cc(F)cc(Cl)c2)ccn1", -1.96],
  ["Cc1cc(-n2nc(C(=O)N3CC[S+]([O-])C3)cc2-c2cc(F)cc(Cl)c2)ccn1 (centres unmarked)", -0.18],
  ["O=C(c1cc(-c2cc(F)cc(Cl)c2)n(-c2ccnc(C(F)(F)F)c2)n1)N1CC[S+]([O-])C1 (centres unmarked)", 0.40],
  ["O=C1CN(C(=O)c2cc(-c3cc(F)cc(Cl)c3)n(-c3cncc(Cl)c3)n2)CCN1", 0.23],
  ["O=C(c1cc(-c2cc(F)cc(OC(F)(F)F)c2)n(-c2cccnc2)n1)N1CCOCC1", -0.22],
  ["Cc1cc(-n2nc(C(=O)N3CCNC(=O)C3)cc2-c2cc(F)cc(Cl)c2)ccn1", 0.50],
  ["O=C1CN(C(=O)c2cc(-c3cncc(F)c3)n(-c3ccc(F)c(Cl)c3)n2)CN1", -1.25],
  ["O=C1CN(C(=O)c2cc(-c3cc(F)cc(OCC(F)(F)F)c3)n(-c3cccnc3)n2)CCN1", -0.61],
  ["O=C1CN(C(=O)c2cc(-c3cc(Br)cc(OC(F)(F)F)c3)n(-c3cccnc3)n2)CCN1", -1.01]
]}

###

Below, each entry is listed with its recorded EC50.
# System: HIV-1LAI Wild Type
# assay.notes: AlamarBlue viability assay, HIV-1LAI-infected MT4 cells
# Assay type: cell-based
# condition.description: Human immunodeficiency virus 1, MT4, MT4 cells, 10% FCS
recorded.endpoint: EC50 (µM)

{"columns": ["compound", "test.system", "unit.label", "result.qualifier", "measurement"],
 "data": [
  ["O=C1CN(C(=O)c2cc(-c3cc(F)cc(OCC(F)(F)F)c3)n(-c3cccnc3)n2)CN1", "HIV-1LAI Wild Type", "µM", "=", 0.034],
  ["O=C1CN(C(=O)c2cc(-c3cc(Br)cc(OC(F)(F)F)c3)n(-c3ccc(Cl)nc3)n2)CCN1", "HIV-1LAI Wild Type", "µM", "=", 0.232],
  ["O=C1CN(C(=O)c2cc(-c3cc(F)cc(OC(F)(F)F)c3)n(-c3ccnc(Cl)c3)n2)CN1", "HIV-1LAI Wild Type", "µM", "=", 0.352],
  ["Cc1ccc(-n2nc(C(=O)N3CNC(=O)C3)cc2-c2cc(F)cc(Cl)c2)cn1", "HIV-1LAI Wild Type", "µM", "=", 0.057],
  ["O=C1CN(C(=O)c2cc(-c3ccnc(Cl)c3)n(-c3cccc(Cl)c3)n2)CN1", "HIV-1LAI Wild Type", "µM", "=", 0.063],
  ["O=C1CN(C(=O)c2cc(-c3cnc(F)c(Cl)c3)n(-c3cccc(Cl)c3)n2)CN1", "HIV-1LAI Wild Type", "µM", "=", 0.025],
  ["O=C(c1cc(-c2cc(Br)cc(OC(F)(F)F)c2)n(-c2ccc(Cl)nc2)n1)N1CC[S+]([O-])C1 (racemic)", "HIV-1LAI Wild Type", "µM", "=", 2.32],
  ["O=C1CN(C(=O)c2cc(-c3cncc(C(F)(F)F)c3)n(-c3ccc(F)c(Cl)c3)n2)CN1", "HIV-1LAI Wild Type", "µM", "=", 0.084],
  ["COc1cc(Br)cc(-c2cc(C(=O)N3CCNC(=O)C3)nn2-c2ccnc(Cl)c2)c1", "HIV-1LAI Wild Type", "µM", "=", 0.068],
  ["O=C1CN(C(=O)c2cc(-c3cc(F)cc(Cl)c3)n(-c3ccnc(C(F)(F)F)c3)n2)CCN1", "HIV-1LAI Wild Type", "µM", "=", 3.67],
  ["O=C1CN(C(=O)c2cc(-c3cc(Cl)cc(OC(F)F)c3)n(-c3cccnc3)n2)CN1", "HIV-1LAI Wild Type", "µM", "=", 0.015],
  ["O=C1CN(C(=O)c2cc(-c3cc(F)cc(Cl)c3)n(-c3ccc(Cl)nc3)n2)CCN1", "HIV-1LAI Wild Type", "µM", "=", 0.205],
  ["O=C1CN(C(=O)c2cc(-c3ccnc(Cl)c3)n(-c3cccc(Cl)c3)n2)CCN1", "HIV-1LAI Wild Type", "µM", "=", 0.352],
  ["O=C(c1cc(-c2cc(Br)cc(OC(F)(F)F)c2)n(-c2ccc(F)nc2)n1)N1CCSC1", "HIV-1LAI Wild Type", "µM", "=", 0.991],
  ["O=C1CN(C(=O)c2cc(-c3cncc(F)c3)n(-c3ccc(F)c(Cl)c3)n2)CCN1", "HIV-1LAI Wild Type", "µM", "=", 0.258],
  ["O=C1CN(C(=O)c2cc(-c3cc(Br)cc(OC(F)(F)F)c3)n(-c3ccnc(C(F)(F)F)c3)n2)CCN1", "HIV-1LAI Wild Type", "µM", ">", 3.3],
  ["O=C1CN(C(=O)c2cc(-c3cc(F)cc(Br)c3)n(-c3cccnc3)n2)CCN1", "HIV-1LAI Wild Type", "µM", "=", 0.055],
  ["O=C(c1cc(-c2cc(Cl)cc(OC(F)(F)F)c2)n(-c2cccnc2)n1)N1CCSC1", "HIV-1LAI Wild Type", "µM", "=", 0.861],
  ["O=C1CN(C(=O)c2cc(-c3cc(F)cc(Cl)c3)n(-c3ccnc(Cl)c3)n2)CN1", "HIV-1LAI Wild Type", "µM", "=", 0.096],
  ["O=C(c1cc(-c2cc(Cl)cc(OC(F)(F)F)c2)n(-c2cccnc2)n1)N1CCS(=O)(=O)C1", "HIV-1LAI Wild Type", "µM", "=", 0.244],
  ["O=C1CN(C(=O)c2cc(-c3cc(F)cc(Cl)c3)n(-c3cccc(Cl)n3)n2)CN1", "HIV-1LAI Wild Type", "µM", ">", 3.3],
  ["O=C(c1cc(-c2cc(F)cc(Cl)c2)n(-c2cccnc2)n1)N1CCSC1", "HIV-1LAI Wild Type", "µM", "=", 0.533],
  ["Nc1ccc(-n2nc(C(=O)N3CNC(=O)C3)cc2-c2cc(F)cc(Cl)c2)cn1", "HIV-1LAI Wild Type", "µM", "=", 1.79],
  ["O=C1CN(C(=O)c2cc(-c3cc(F)cc(OC(F)(F)F)c3)n(-c3cccnc3)n2)CN1", "HIV-1LAI Wild Type", "µM", "=", 0.183],
  ["COc1cc(OC(F)(F)F)cc(-c2cc(C(=O)N3CNC(=O)C3)nn2-c2ccnc(Cl)c2)c1", "HIV-1LAI Wild Type", "µM", "=", 0.065],
  ["O=C1CN(C(=O)c2cc(-c3ccnc(Cl)c3)n(-c3ccc(F)c(Cl)c3)n2)CN1", "HIV-1LAI Wild Type", "µM", "=", 0.079],
  ["O=C1CN(C(=O)c2cc(-c3cncc(Cl)c3)n(-c3ccc(F)c(Cl)c3)n2)CCN1", "HIV-1LAI Wild Type", "µM", "=", 0.034],
  ["O=C(c1cc(-c2cc(F)cc(OCC(F)(F)F)c2)n(-c2cccnc2)n1)N1CCSC1", "HIV-1LAI Wild Type", "µM", "=", 0.585],
  ["O=C(c1cc(-c2cc(F)cc(OCC(F)(F)F)c2)n(-c2ccc[n+]([O-])c2)n1)N1CCS(=O)(=O)C1", "HIV-1LAI Wild Type", "µM", ">", 3.3],
  ["O=C(c1cc(-c2cc(Br)cc(OC(F)(F)F)c2)n(-c2ccnc(C(F)(F)F)c2)n1)N1CCSC1", "HIV-1LAI Wild Type", "µM", ">", 3.3],
  ["COc1cc(Br)cc(-c2cc(C(=O)N3CNC(=O)C3)nn2-c2cccnc2)c1", "HIV-1LAI Wild Type", "µM", "=", 0.006]
]}
